Entry source: ChEMBL document CHEMBL3399938

# TESTED ON: NAD(P)H dehydrogenase [quinone] 1 (Mus musculus) (UniProt Q64669)
# Sequence (Q64669 whole entry): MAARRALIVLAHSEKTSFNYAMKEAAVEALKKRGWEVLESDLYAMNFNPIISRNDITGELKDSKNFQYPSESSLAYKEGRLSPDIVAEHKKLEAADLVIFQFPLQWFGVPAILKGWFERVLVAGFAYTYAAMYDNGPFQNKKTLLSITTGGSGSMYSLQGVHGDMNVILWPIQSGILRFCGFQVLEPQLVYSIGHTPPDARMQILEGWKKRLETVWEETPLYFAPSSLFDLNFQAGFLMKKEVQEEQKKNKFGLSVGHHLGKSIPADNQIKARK
# METHOD SUMMARY: Induction of NQO1 activity in mouse Hepa-1c1c7 cells assessed as induction ratio at 20 uM after 48 hr by NADPH-dependent MTT assay relative to control
# Format: cell-based
RECORDED METRIC: Ratio

[[record]]
compound = "COc1cc2c(c3oc(-c4ccccc4)cc(=O)c13)C=CC(C)(C)O2 [CANDIDIN]"
result_value = 2.02

[[record]]
compound = "O=c1c2c(oc3c1ccc1occc13)-c1ccccc1OC2"
result_value = 1.67

[[record]]
compound = "COc1cc2c(c(O)c1C(=O)/C=C/c1ccccc1)C=CC(C)(C)O2"
result_value = 2.14

[[record]]
compound = "O=c1cc(-c2ccccc2)oc2c1ccc1occc12 [LANCEOLATIN B]"
result_value = 1.64

[[record]]
compound = "CC1(C)C=Cc2c(ccc3c2OC(c2ccccc2)CC3=O)O1 (stereo not given)"
result_value = 1.54

[[record]]
compound = "O=C(/C=C/c1ccccc1)c1ccc2occc2c1O"
result_value = 1.75

[[record]]
compound = "COc1c(-c2ccccc2)oc2c(ccc3occc32)c1=O [KARANJIN]"
result_value = 1.57

[[record]]
compound = "COc1c(C(=O)/C=C(\\O)c2ccccc2)ccc2c1C=CC(C)(C)O2"
result_value = 1.9

[[record]]
compound = "COc1cc2c(=O)cc(-c3ccccc3)oc2c2c1OC(C)(C)C=C2"
result_value = 1.4

[[record]]
compound = "CC1(C)C=Cc2c(ccc(C(=O)/C=C/c3ccccc3)c2O)O1 [LONCHOCARPIN]"
result_value = 1.7

[[record]]
compound = "CC1(C)C=Cc2c(ccc3c(=O)cc(-c4ccccc4)oc23)O1"
result_value = 1.6

[[record]]
compound = "COc1c(C(=O)C[C@@H](OC)c2ccccc2)ccc2occc12"
result_value = 2.07

[[record]]
compound = "COc1c(C(=O)/C=C/c2ccccc2)ccc2occc12"
result_value = 2.01

[[record]]
compound = "CC1(C)C=Cc2c(c(O)cc3c(=O)cc(-c4ccccc4)oc23)O1"
result_value = 2.14

[[record]]
compound = "COc1c(C(=O)/C=C(\\O)c2ccccc2)ccc2occc12 [PONGAMOL]"
result_value = 1.69

